Molecular target: CDK4 (Homo sapiens, UniProt P11802+Q16531)
Sequence (P11802 2-303 limits assumed): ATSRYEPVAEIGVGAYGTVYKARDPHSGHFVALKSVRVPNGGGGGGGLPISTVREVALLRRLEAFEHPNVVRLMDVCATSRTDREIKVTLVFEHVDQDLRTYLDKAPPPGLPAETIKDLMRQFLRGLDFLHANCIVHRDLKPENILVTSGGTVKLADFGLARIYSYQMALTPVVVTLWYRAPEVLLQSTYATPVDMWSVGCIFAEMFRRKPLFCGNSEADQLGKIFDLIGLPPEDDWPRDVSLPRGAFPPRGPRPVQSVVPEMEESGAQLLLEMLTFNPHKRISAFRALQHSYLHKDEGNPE
Sequence (P24385 whole entry partner): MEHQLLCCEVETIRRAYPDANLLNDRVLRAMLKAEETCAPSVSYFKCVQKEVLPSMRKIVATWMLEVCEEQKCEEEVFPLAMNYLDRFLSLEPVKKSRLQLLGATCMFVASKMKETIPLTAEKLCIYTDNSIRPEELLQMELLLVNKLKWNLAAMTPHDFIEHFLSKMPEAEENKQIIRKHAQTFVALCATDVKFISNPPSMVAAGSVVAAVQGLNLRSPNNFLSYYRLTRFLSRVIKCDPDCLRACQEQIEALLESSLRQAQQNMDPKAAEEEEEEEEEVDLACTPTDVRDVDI
Sequence (Q16531 2-1140 limits assumed): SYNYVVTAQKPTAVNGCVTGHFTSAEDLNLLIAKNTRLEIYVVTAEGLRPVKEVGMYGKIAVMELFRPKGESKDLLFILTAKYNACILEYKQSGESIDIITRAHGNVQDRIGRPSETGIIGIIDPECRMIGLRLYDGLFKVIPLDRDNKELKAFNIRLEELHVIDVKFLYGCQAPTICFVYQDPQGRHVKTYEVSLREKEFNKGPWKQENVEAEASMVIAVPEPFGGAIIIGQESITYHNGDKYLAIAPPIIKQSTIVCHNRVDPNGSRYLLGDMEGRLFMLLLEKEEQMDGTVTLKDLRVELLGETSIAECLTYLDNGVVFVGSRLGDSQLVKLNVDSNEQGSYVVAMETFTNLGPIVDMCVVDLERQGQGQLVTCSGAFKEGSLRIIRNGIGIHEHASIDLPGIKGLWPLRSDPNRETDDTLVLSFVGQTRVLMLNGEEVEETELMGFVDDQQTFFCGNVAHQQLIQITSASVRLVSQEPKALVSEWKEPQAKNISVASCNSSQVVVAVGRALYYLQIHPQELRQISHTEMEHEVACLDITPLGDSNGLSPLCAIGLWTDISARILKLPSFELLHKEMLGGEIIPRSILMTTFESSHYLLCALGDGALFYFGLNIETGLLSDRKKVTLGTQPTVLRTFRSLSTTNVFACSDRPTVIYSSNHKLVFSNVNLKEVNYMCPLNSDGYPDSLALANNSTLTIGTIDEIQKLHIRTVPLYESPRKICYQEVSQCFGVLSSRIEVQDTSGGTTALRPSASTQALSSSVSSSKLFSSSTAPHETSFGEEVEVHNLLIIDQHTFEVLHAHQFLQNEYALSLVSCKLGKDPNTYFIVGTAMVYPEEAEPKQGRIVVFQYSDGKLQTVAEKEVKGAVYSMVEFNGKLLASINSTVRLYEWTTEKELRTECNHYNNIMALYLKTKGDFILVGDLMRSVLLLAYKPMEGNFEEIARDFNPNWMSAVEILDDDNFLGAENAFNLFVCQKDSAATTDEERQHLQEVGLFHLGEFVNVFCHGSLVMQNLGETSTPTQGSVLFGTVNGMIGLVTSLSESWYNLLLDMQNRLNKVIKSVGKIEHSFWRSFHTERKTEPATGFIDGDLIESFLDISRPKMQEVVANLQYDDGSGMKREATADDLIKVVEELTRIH
Test: CDK4 percentage degradation in Calu-1 cells (Table 6)
Type: cell-based
Parameters: Cells that express cyclin D1-3 and CDK4/6 proteins were treated with heterobifunctional compounds; endogenous in cells; host or cells: Calu-1
Settings: 40 nM, 16 hours
Procedure: Calu-(cells were treated with heterobifunctional compounds at 40 nM or 200 nM for 16 hours A: protein percentage degradation […]; B: protein percentage degradation <80%, and ≥50%; C: protein percentage degradation <50%, and ≥30%; D; protein percentage degradation […]; -, data not available. Calu-1, T47D, MCF7, HCC1428 and other cells were cultured at 37° C. with 5% CO2 in RPMI 1640 or DMEM medium supplemented with 10% fetal bovine serum. […]
Below, each entry is listed with its recorded inhibition at 0.04 µM.

# example entries with known answers
compound	inhibition at 0.04 µM
CNc1ccc(C(=O)Nc2ccc(N(C)C)nn2)c(NC2CC3(C2)CN(C(=O)C(C)CN2CCN(c4ccc(Nc5ncc6c(C)c(C(C)=O)c(=O)n(C7CCCC7)c6n5)nc4)CC2)C3)n1 (stereo not shown)	50 to 80%
CC(=O)c1c(C)c2cnc(Nc3ccc(N4CCN(C(C)CC(=O)N5CC6(CC(Nc7nc(NC(C)C)ccc7C(=O)Nc7cn(C)c(C8CC8)n7)C6)C5)CC4)cn3)nc2n(C2CCCC2)c1=O (stereo not shown)	30 to 50%
CNc1ccc(C(=O)Nc2ccc(N(C)C)c(C3CC3)n2)c(NC2CC3(CC(NC(=O)CN4CCN(c5ccc(Nc6ncc7c(C)c(C(C)=O)c(=O)n(C8CCCC8)c7n6)nc5)CC4)C3)C2)n1 (stereo not shown)	< 30%
CNc1ccc(C(=O)Nc2ccc(N(C)C)nn2)c(NC[C@H]2CC[C@H](NC(=O)CN3CCN(c4ccc(Nc5ncc6c(C)c(C(C)=O)c(=O)n(C7CCCC7)c6n5)nc4)CC3)CC2)n1	50 to 80%
CC(=O)c1c(C)c2cnc(Nc3ccc(N4CCN(C(C)C(=O)NC5CC(Nc6nc(NC(C)C)ccc6C(=O)Nc6ccc(N(C)C)nn6)C5)CC4)cn3)nc2n(C2CCCC2)c1=O (stereo not shown)	< 30%

Query: Query for CDK4 (Homo sapiens, UniProt P11802+Q16531): what inhibition at 0.04 µM does the record show for "CNc1ccc(C(=O)Nc2ccc(N(C)C)nn2)c(Nc2cc(CCNC(=O)CN3CCN(c4ccc(Nc5ncc6c(C)c(C(C)=O)c(=O)n(C7CCCC7)c6n5)nc4)CC3)no2)n1" ?
Result: 50 to 80%

Query: Query for CDK4 (Homo sapiens, UniProt P11802+Q16531): what inhibition at 0.04 µM does the record show for CNc1ccc(C(=O)Nc2cc(C)on2)c(NC2CC(NC(=O)CN3CCN(c4ccc(Nc5ncc6c(C)c(C(C)=O)c(=O)n(C7CCCC7)c6n5)nc4)CC3)C2)n1 (stereo not shown) ?
Result: < 30%

---

Molecular target: CDK4 (Homo sapiens, UniProt P11802+Q16531)
Assay: CDK4 percentage degradation in Calu-1 cells (Table 6)
Assay type: cell-based
Design: Cells that express cyclin D1-3 and CDK4/6 proteins were treated with heterobifunctional compounds; endogenous in cells; host or cells: Calu-1
Settings: 40 nM, 16 hours
parameter: inhibition at 0.04 µM

For orientation, consider the following solved cases.
compound	inhibition at 0.04 µM
CNc1ccc(C(=O)Nc2ccc(C(F)(F)F)c(C3CC3)n2)c(NC2CC3(CC(NC(=O)CN4CCN(c5ccc(Nc6ncc7c(C)c(C(C)=O)c(=O)n(C8CCCC8)c7n6)nc5)CC4)C3)C2)n1 (stereo not drawn)	< 30%
CNc1ccc(C(=O)Nc2ccc(C)c(C)n2)c(NCCCCCNC(=O)CN2CCN(c3ccc(Nc4ncc5c(C)c(C(C)=O)c(=O)n(C6CCCC6)c5n4)nc3)CC2)n1	50 to 80%
CNc1ccc(C(=O)Nc2ccc(N(C)C)nn2)c(NC2CC3(CC(NCC(=O)N4CCN(c5ccc(Nc6ncc7c(C)c(C(C)=O)c(=O)n(C8CCCC8)c7n6)nc5)CC4)C3)C2)n1 (stereo not drawn)	50 to 80%
CNc1ccc(C(=O)NC2CCC(N(C)C)CC2)c(NCCCCCNC(=O)CN2CCN(c3ccc(Nc4ncc5c(C)c(C(C)=O)c(=O)n(C6CCCC6)c5n4)nc3)CC2)n1 (stereo not drawn)	< 30%
[2H]C([2H])([2H])Nc1ccc(C(=O)Nc2ccc(N(C)C)nn2)c(NC2CC3(CC(NC(=O)CN4CCN(c5ccc(Nc6ncc7c(C)c(C(C)=O)c(=O)n(C8CCCC8)c7n6)nc5)CC4)C3)C2)n1 (stereo not drawn)	50 to 80%
CNc1ccc(C(=O)Nc2ncc(C)o2)c(NC2CC3(CC(NC(=O)CN4CCN(c5ccc(Nc6ncc7c(C)c(C(C)=O)c(=O)n(C8CCCC8)c7n6)nc5)CC4)C3)C2)n1 (stereo not drawn)	50 to 80%
[2H]C([2H])([2H])Nc1ccc(C(=O)Nc2cccc(C)n2)c(NC2CC3(CC(NC(=O)CN4CCN(c5ccc(Nc6ncc7c(C)c(C(C)=O)c(=O)n(C8CCCC8)c7n6)nc5)CC4)C3)C2)n1 (stereo not drawn)	30 to 50%
CNc1ccc(C(=O)Nc2ccn(C)n2)c(NCCCCCNC(=O)CN2CCN(c3ccc(Nc4ncc5c(C)c(C(C)=O)c(=O)n(C6CCCC6)c5n4)nc3)CC2)n1	50 to 80%

Query: Could you share which inhibition at 0.04 µM value was measured for "CNc1ccc(C(=O)Nc2ccc(=O)[nH]n2)c(NCCCCCNC(=O)CN2CCN(c3ccc(Nc4ncc5c(C)c(C(C)=O)c(=O)n(C6CCCC6)c5n4)nc3)CC2)n1" ?
Result: < 30%

Query: May I ask what inhibition at 0.04 µM has been recorded for "CNc1ccc(C(=O)Nc2ccc(N(C)C)nn2)c(NCCCC2CN(C(=O)CN3CCN(c4ccc(Nc5ncc6c(C)c(C(C)=O)c(=O)n(C7CCCC7)c6n5)nc4)CC3)C2)n1" ?
Result: 50 to 80%

Query: Recorded inhibition at 0.04 µM of "CC(=O)c1c(C)c2cnc(Nc3ccc(N4CCN(CC(=O)NCCCCCNc5nc(C6CC6)ccc5C(=O)Nc5ccc(N(C)C)nn5)CC4)cn3)nc2n(C2CCCC2)c1=O" , please.
Result: > 80%

Query: For the compound shown here, CNc1ccc(C(=O)Nc2cc(C3CC3)on2)c(NC2CC3(CC(NC(=O)CN4CCN(c5ccc(Nc6ncc7c(C)c(C(C)=O)c(=O)n(C8CCCC8)c7n6)nc5)CC4)C3)C2)n1 (stereo not drawn) , give the reported inhibition at 0.04 µM.
Result: < 30%

Query: Report inhibition at 0.04 µM for CNc1ccc(C(=O)Nc2ccc(N(C)C)nn2)c(NCC2CC(CNC(=O)CN3CCN(c4ccc(Nc5ncc6c(C)c(C(C)=O)c(=O)n(C7CCCC7)c6n5)nc4)CC3)C2)n1 (stereo not drawn) please.
Result: 50 to 80%

Query: Would you kindly share the measured inhibition at 0.04 µM for "CNc1ccc(C(=O)Nc2ccc(N(C)C)nn2)c(NC2CC3(C2)CN(C(=O)N2CCN(c4ccc(Nc5ncc6c(C)c(C(C)=O)c(=O)n(C7CCCC7)c6n5)nc4)CC2)C3)n1" ?
Result: 30 to 50%

Query: Look up inhibition at 0.04 µM for this compound: CNc1ccc(C(=O)Nc2cn(C)c(C3CC3)n2)c(NC2CC3(CC(NC(=O)CN4CCN(c5ccc(Nc6ncc7c(C)c(C(C)=O)c(=O)n(C8CCCC8)c7n6)nc5)CC4)C3)C2)n1 (stereo not drawn)
Result: 30 to 50%

Query: Can you share its inhibition at 0.04 µM? I mean this compound: CNc1ccc(C(=O)Nc2ccc(N(C)C)nn2)c(NC2CC(CNC(=O)CN3CCN(c4ccc(Nc5ncc6c(C)c(C(C)=O)c(=O)n(C7CCCC7)c6n5)nc4)CC3)C2)n1 (stereo not drawn)
Result: 50 to 80%

---

Biological target: CDK4 (Homo sapiens, UniProt P11802+Q16531)
Assay: CDK4 percentage degradation in Calu-1 cells (Table 6)
Type: cell-based
Design: Cells that express cyclin D1-3 and CDK4/6 proteins were treated with heterobifunctional compounds; endogenous in cells; host or cells: Calu-1
Settings: 40 nM, 16 hours
parameter: inhibition at 0.04 µM

Please review the following examples before continuing.
compound	testResult
CC(=O)c1c(C)c2cnc(Nc3ccc(N4CCN(CC(=O)NCCCCCNc5nc(C(F)(F)F)ccc5C(=O)Nc5ccc(N(C)C)nn5)CC4)cn3)nc2n(C2CCCC2)c1=O	30 to 50%
[2H]C([2H])([2H])Nc1ccc(C(=O)Nc2ccc(N(C)C)nn2)c(NC2CC3(C2)CN(C(=O)CC(C)N2CCN(c4ccc(Nc5ncc6c(C)c(C(C)=O)c(=O)n(C7CCCC7)c6n5)nc4)CC2)C3)n1 (stereo not drawn)	< 30%
CNc1ccc(C(=O)Nc2ccc(N(C)C)cc2)c(NCCCCCNC(=O)CN2CCN(c3ccc(Nc4ncc5c(C)c(C(C)=O)c(=O)n(C6CCCC6)c5n4)nc3)CC2)n1	< 30%
CNc1ccc(C(=O)Nc2ccc(OC)nn2)c(NCCCCCCCNC(=O)CN2CCN(c3ccc(Nc4ncc5c(C)c(C(C)=O)c(=O)n(C6CCCC6)c5n4)nc3)CC2)n1	50 to 80%
CNc1ccc(C(=O)Nc2cccc(C(F)F)n2)c(NC2CC3(CC(NC(=O)CN4CCN(c5ccc(Nc6ncc7c(C)c(C(C)=O)c(=O)n(C8CCCC8)c7n6)nc5)CC4)C3)C2)n1 (stereo not drawn)	50 to 80%

Attention now turns to another entry.
Query: What does the data say about its inhibition at 0.04 µM? Entry: CNc1ccc(C(=O)Nc2ccc(F)c(C)n2)c(NC2CC3(CC(NC(=O)CN4CCN(c5ccc(Nc6ncc7c(C)c(C(C)=O)c(=O)n(C8CCCC8)c7n6)nc5)CC4)C3)C2)n1 (stereo not drawn)
Result: 50 to 80%
